MEASUREMENT TYPE: melting point

STRUCTURE STRING: COC(=O)NCc1cc(-c2ccn(-c3ccc4c(c3)CCCO4)n2)ccc1F
OBSERVED RESULT: 134 to 138 °C

Suppose we examine the molecule `COC(=O)NCc1cc(-c2ccn(-c3ccc4c(c3)CCCO4)n2)ccc1C` ; what melting point value has been reported?
161 to 162 °C

Suppose we examine the molecule `COC(=O)NCc1cc(-c2ccn(-c3ccc4c(c3)CC3(CO4)OCCO3)n2)ccc1Cl` ; what melting point value has been reported?
70 to 73 °C

Suppose we examine the molecule `COC(=O)NCc1cc(-c2ccn(-c3ccc4c(c3)CC(=O)CO4)n2)ccc1Cl` ; what melting point value has been reported?
104 to 106 °C

Suppose we examine the molecule `COC(=O)NCc1cc(-n2ccc(-c3ccc4c(c3)CCCO4)n2)ccc1C` ; what melting point value has been reported?
152 to 154 °C
